Data provenance is the RNAGym collection of RNA variant scans (doi:10.7554/elife.80360).

B1: HDV Ribozyme (parent)
chain: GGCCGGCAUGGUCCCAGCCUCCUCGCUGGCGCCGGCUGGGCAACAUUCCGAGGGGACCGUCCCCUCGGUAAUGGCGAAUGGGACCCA

variants of: B1; experiment: self-cleavage, relative activity (ratio to wild type); higher = more cleavage; co-transcriptional
Could you label it Yes if measured self-cleavage is 0.5 or higher, and No otherwise?

{"SEQUENCE CONTENT": "GGCCGGCAUGGUUCCAGCCUCCUCGCUGGCGCCGGCUGGGCAACAUUCGGAGGGGACCGUCCCCUCGGUAAUGGCGAAUGGGACCCA [C13U C49G]", "GROUP LABEL": "No"}
{"SEQUENCE CONTENT": "GGCCGGCAUGGUCCCAGCCUCCUCGCUGGCGCCGGCUGAGCAAUAUUCCGAGGGGACCGUCCCCUCGGUAAUGGCGAAUGGGACCCA [G39A C44U]", "GROUP LABEL": "No"}
{"SEQUENCE CONTENT": "GGCCGGCAUGGUCCCAGCCUCCUCGCUGGCGCCGGCUGGGCAACAUUCCGAGGUGACCCUCCCCUCGGUAAUGGCGAAUGGGACCCA [G54U G59C]", "GROUP LABEL": "Yes"}
{"SEQUENCE CONTENT": "GGCCGGCAUGGUCCCACCCUCCUCGCUGGCGCCGGCUGGGCAACAUUCCGAGGGGACCGUCCCCCCGGUAAUGGCGAAUGGGACCCA [G17C U65C]", "GROUP LABEL": "Yes"}
{"SEQUENCE CONTENT": "GGCCGGCAUGGUCCAAGCCUCCUCGCUCGCGCCGGCUGGGCAACAUUCCGAGGGGACCGUCCCCUCGGUAAUGGCGAAUGGGACCCA [C15A G28C]", "GROUP LABEL": "No"}
{"SEQUENCE CONTENT": "UGCCGGCAUGGUCCCAGCCUCCUCGCUGGGGCCGGCUGGGCAACAUUCCGAGGGGACCGUCCCCUCGGUAAUGGCGAAUGGGACCCA [G1U C30G]", "GROUP LABEL": "No"}
{"SEQUENCE CONTENT": "GGACGGCAUGGUCCCAGCCUCCUCGCUGGCGCCGGCUGGGCAACAUUCCGGGGGGACCGUCCCCUCGGUAAUGGCGAAUGGGACCCA [C3A A51G]", "GROUP LABEL": "No"}
{"SEQUENCE CONTENT": "GGCCGGCAUGGUCCCAGCCUCCUCGCUGGCGCCGGCUGGGCAACGUUCCGAGGGGACCGUCCCCUCGGUUAUGGCGAAUGGGACCCA [A45G A70U]", "GROUP LABEL": "Yes"}
